# credit: patent US12606552B2

# experimental-system: AR (Homo sapiens, UniProt P10275, T878A)
# Sequence (P10275 whole entry T878A): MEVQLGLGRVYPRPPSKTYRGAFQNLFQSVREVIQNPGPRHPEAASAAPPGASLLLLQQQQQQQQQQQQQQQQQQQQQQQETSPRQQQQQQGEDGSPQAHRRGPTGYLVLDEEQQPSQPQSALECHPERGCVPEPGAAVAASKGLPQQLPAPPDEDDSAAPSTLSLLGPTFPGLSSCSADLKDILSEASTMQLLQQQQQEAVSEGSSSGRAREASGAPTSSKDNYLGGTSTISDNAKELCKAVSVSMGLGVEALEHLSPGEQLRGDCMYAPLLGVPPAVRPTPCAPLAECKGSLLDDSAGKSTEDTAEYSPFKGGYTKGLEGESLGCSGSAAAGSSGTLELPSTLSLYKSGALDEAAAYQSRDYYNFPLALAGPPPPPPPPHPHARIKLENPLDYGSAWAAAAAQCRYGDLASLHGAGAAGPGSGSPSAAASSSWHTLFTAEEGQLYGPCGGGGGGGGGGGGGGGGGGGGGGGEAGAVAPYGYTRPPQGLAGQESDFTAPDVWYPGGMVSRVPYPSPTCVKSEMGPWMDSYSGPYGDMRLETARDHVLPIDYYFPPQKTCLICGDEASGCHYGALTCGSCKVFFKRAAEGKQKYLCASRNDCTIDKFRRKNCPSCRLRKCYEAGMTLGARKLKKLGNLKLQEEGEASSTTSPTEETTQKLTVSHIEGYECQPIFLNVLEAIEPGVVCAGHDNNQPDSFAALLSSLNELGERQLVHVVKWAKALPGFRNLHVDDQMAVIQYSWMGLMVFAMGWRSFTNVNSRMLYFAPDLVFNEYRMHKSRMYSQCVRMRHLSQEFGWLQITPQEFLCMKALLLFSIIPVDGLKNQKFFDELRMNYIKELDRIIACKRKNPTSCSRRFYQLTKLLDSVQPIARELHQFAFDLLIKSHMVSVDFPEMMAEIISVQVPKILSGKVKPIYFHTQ
# experiment-notes: Effects of compounds on AR expression in LNCaP cells (ELISA, DC50)
# Type: cell-based
# Set-up: Measurement of the Effects of Drugs on the Expression of AR in Cells by ELISA Method; endogenous in cells; host or cells: LNCaP
# experimental-setup: 24 hours of drug treatment, AR by ELISA
value-kind: DC50 (nM)
Reply numerically in nM, unit not repeated.

The molecule listed as CC1(C)C(=O)N(c2ccc(C#N)c(C(F)(F)F)c2F)C(=S)N1c1cnc(-c2cc(F)c(OC3CCN(C(=O)COc4cccc5c4C(=O)N(C4CCC(=O)NC4=O)C5=O)CC3)c(F)c2)c(F)c1 (stereo not shown) shows DC50 equal to 162

The molecule listed as `Cc1ncsc1-c1ccc(CNC(=O)[C@@H]2C[C@@H](O)CN2C(=O)[C@@H](NC(=O)COCCCOc2ccc(-c3ccc(N4C(=S)N(c5ccc(C#N)c(C(F)(F)F)c5F)C(=O)C4(C)C)cn3)cc2F)C(C)(C)C)cc1` shows DC50 equal to 35.1

The molecule listed as `Cc1ncsc1-c1ccc(CNC(=O)[C@@H]2C[C@@H](O)CN2C(=O)[C@@H](NC(=O)c2ccc(CNC(=O)c3ccc(-c4ccc(N5C(=S)N(c6ccc(C#N)c(C(F)(F)F)c6F)C(=O)C5(C)C)cn4)cc3)cc2)C(C)(C)C)cc1` shows DC50 equal to 82.9

The molecule listed as CC1(C)C(=O)N(c2ccc(C#N)c(C(F)(F)F)c2F)C(=S)N1c1cnc(-c2ccc(OC3CCN(C(=O)COc4ccc5c(c4)C(=O)N(C4CCC(=O)NC4=O)C5=O)CC3)c(F)c2)c(F)c1 (stereo not shown) shows DC50 equal to 122

The molecule listed as `Cc1ncsc1-c1ccc(CNC(=O)[C@@H]2C[C@@H](O)CN2C(=O)[C@@H](NC(=O)Cc2ccc(C(=O)Nc3ccc(-c4ncc(N5C(=S)N(c6ccc(C#N)c(C(F)(F)F)c6F)C(=O)C5(C)C)cc4F)c(C(F)(F)F)c3)cc2)C(C)(C)C)cc1` shows DC50 equal to 119

The molecule listed as `Cc1ncsc1-c1ccc(CNC(=O)[C@@H]2C[C@@H](O)CN2C(=O)[C@@H](NC(=O)COCCCC(=O)N(Cc2ccccc2)c2ccc(-c3ccc(N4C(=S)N(c5ccc(C#N)c(C(F)(F)F)c5F)C(=O)C4(C)C)cn3)cc2)C(C)(C)C)cc1` shows DC50 equal to 248

The molecule listed as Cc1cc(C(C(=O)N2C[C@H](O)C[C@H]2C(=O)N[C@@H](CC(=O)N2CCC(C#Cc3ccc(N4C(=S)N(c5ccc(C#N)c(C(F)(F)F)c5F)C(=O)C4(C)C)cc3)CC2)c2ccc(-c3scnc3C)cc2)C(C)C)on1 (stereo partly shown) shows DC50 equal to 62.1

The molecule listed as `Cc1ncsc1-c1ccc(CNC(=O)[C@@H]2C[C@@H](O)CN2C(=O)[C@@H](NC(=O)[C@H]2CC[C@H](CNC(=O)c3ccc(-c4ccc(N5C(=S)N(c6ccc(C#N)c(C(F)(F)F)c6F)C(=O)C5(C)C)cn4)cc3)CC2)C(C)(C)C)cc1` shows DC50 equal to 48.6

The molecule listed as Cc1cc(C(C(=O)N2C[C@H](O)C[C@H]2C(=O)N[C@@H](CC(=O)NCCCOc2ccc(-c3ncc(N4C(=S)N(c5ccc(C#N)c(C(F)(F)F)c5F)C(=O)C4(C)C)cc3F)cc2F)c2ccc(-c3scnc3C)cc2)C(C)C)on1 (stereo partly shown) shows DC50 equal to 170

The molecule listed as CC1(C)C(=O)N(c2ccc(C#N)c(C(F)(F)F)c2F)C(=S)N1c1ccc(-c2ccc(OC3CCN(C(=O)COc4cccc5c4C(=O)N(C4CCC(=O)NC4=O)C5=O)CC3)cc2)nc1 (stereo not shown) shows DC50 equal to 18.6

###

# experimental-system: AR (Homo sapiens, UniProt P10275, T878A)
# experiment-notes: Effects of compounds on AR expression in LNCaP cells (ELISA, DC50)
# Type: cell-based
# Design: Measurement of the Effects of Drugs on the Expression of AR in Cells by ELISA Method; endogenous in cells; host or cells: LNCaP
# experimental-setup: 24 hours of drug treatment, AR by ELISA
value-kind: DC50 (nM)
Reply numerically in nM, unit not repeated.

The molecule listed as `Cc1ncsc1-c1ccc(CNC(=O)[C@@H]2C[C@@H](O)CN2C(=O)[C@@H](NC(=O)COCCCCCOc2ccc(-c3ncc(N4C(=S)N(c5ccc(C#N)c(C(F)(F)F)c5F)C(=O)C4(C)C)cc3F)cc2F)C(C)(C)C)cc1` shows DC50 equal to 72

The molecule listed as `Cc1ncsc1-c1ccc(CNC(=O)[C@@H]2C[C@@H](O)CN2C(=O)[C@@H](NC(=O)COCCOc2ncc(N3C(=S)N(c4ccc(C#N)c(C(F)(F)F)c4F)C(=O)C3(C)C)cc2C(F)(F)F)C(C)(C)C)cc1` shows DC50 equal to 766

The molecule listed as `Cc1ncsc1-c1ccc(CNC(=O)[C@@H]2C[C@@H](O)CN2C(=O)[C@@H](NC(=O)COCCCOCCCCOc2ccc(N3C(=S)N(c4ccc(C#N)c(C(F)(F)F)c4F)C(=O)C3(C)C)cn2)C(C)(C)C)cc1` shows DC50 equal to 48.8

The molecule listed as `Cc1ncsc1-c1ccc(CNC(=O)[C@@H]2C[C@@H](O)CN2C(=O)[C@@H](NC(=O)CCc2ccc(C(=O)Nc3ccc(-c4ccc(N5C(=S)N(c6ccc(C#N)c(C(F)(F)F)c6F)C(=O)C5(C)C)cn4)cc3)cc2)C(C)(C)C)cc1` shows DC50 equal to 95.9

The molecule listed as Cc1cc(C(C(=O)N2C[C@H](O)C[C@H]2C(=O)N[C@@H](CC(=O)NCCN2CCC(C#Cc3ccc(N4C(=S)N(c5ccc(C#N)c(C(F)(F)F)c5F)C(=O)C4(C)C)cc3)CC2)c2ccc(-c3scnc3C)cc2)C(C)C)on1 (stereo partly drawn) shows DC50 equal to 370
